Tested on: RPMI-8226 leukemia
ASSAY NOTES: NCI-60 one-dose screen, 48 h
TEST PARAMETERS: 10 µM unless noted
The panel holds about 83,000 compounds, 20% with a hit somewhere; the sample as a whole holds those more often. The source made the active and inactive calls. The calls were made as follows: active = growth percent below 10; inactive = the rest.
Hi! Could you answer with just one of these? active, inactive

Example entries and their recorded answers appear below.
# STRUCTURE AS SMILES, CLASS ASSIGNMENT
data = [
    ("C[C@H]1[C@H](C)CC[C@]2(C(=O)O)CC[C@]3(C)C(=CC[C@@H]4[C@@]5(C)C/C(=C/c6cccnc6)[C@H](O)C(C)(C)[C@@H]5CC[C@]43C)[C@H]12", "active"),
    ("C[N+](C)(C)c1ncnc2[n-]cnc12", "inactive"),
]

Consider the record given below.
Challenge: Dear colleague, could you share the recorded outcome for C=C(C)[C@@H]1CC[C@]2(C(=O)NCCCCCCN(CCCN)CCCN)CC[C@]3(C)[C@H](CC[C@@H]4[C@@]5(C)CC[C@H](OCCCN)C(C)(C)[C@@H]5CC[C@]43C)[C@@H]12 when you have a moment?
Response given: inactive
